target: PGD2 receptor (Homo sapiens); construct: Preparation of Human Platelet Membrane Fraction; assay: Binding to PGD2 receptor ([3H]PGD2, human platelet membrane fraction); conditions: 5 nM [3H]PGD2, 4° C., 90 min, read-out: Activity (binding-inhibitory activity, concentration required for 50% inhibition, IC50)
Sequence (Q13258 whole entry): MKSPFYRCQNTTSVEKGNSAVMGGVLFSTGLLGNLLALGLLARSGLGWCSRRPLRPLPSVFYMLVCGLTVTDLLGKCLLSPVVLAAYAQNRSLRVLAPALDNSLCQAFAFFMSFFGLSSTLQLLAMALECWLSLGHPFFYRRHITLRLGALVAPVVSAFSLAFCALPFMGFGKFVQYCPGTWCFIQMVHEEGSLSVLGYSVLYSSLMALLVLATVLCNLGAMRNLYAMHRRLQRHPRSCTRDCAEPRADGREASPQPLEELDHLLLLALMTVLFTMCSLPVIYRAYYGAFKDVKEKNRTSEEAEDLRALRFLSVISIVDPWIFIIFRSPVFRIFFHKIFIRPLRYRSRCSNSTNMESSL
readout label: pIC50
pIC50 field: float, defined as -log10 of concentration (mol/L).

Would you please give the reported pIC50 of O=C(O)CCC/C=C\C[C@@H]1[C@H]2CC[C@H](C2)[C@H]1NS(=O)(=O)c1ccc2oc3ccccc3c2c1 [1a-2] with PGD2 receptor (Homo sapiens)?
6.89
